From: PubChem BioAssay (NCI)

test system: A498 renal; experiment: NCI-60 one-dose screen, 48 h (100 = growth as untreated, 0 = no growth, -100 = all killed); conditions: 10 µM unless noted
About 83,000 compounds went through this panel and 20% of them were active in at least one assay; those are over-represented in the sample as a whole.
Classes are defined on growth with ranges bucket 1: < 60%; bucket 2: ≥ 60% and < 90%; bucket 3: ≥ 90%

Recorded results for 6 compounds are shown here.
- COMPOUND: "Nc1cc2c([nH]c[n+]2CC#CCCl)c(SCC#CCCl)n1"
  CLASS_LABEL: "bucket 1"
- COMPOUND: "CN(CCCCCl)P(=O)(OCc1ccc([N+](=O)[O-])o1)C(F)(F)C[C@H](NC(=O)CNC(=O)c1ccc(N=[N+]=[N-])cc1)C(=O)NCCc1ccc(O)cc1 (some centres undefined)"
  CLASS_LABEL: "bucket 3"
- COMPOUND: "CCN(CC)CCOc1ccc(/C(=C(/C)c2ccccc2)c2ccc(OC(C)=O)cc2)cc1"
  CLASS_LABEL: "bucket 2"
- COMPOUND: "Cc1nn(-c2ccc(Cl)cc2)c2ncnc(N/N=C/c3cccc([N+](=O)[O-])c3)c12"
  CLASS_LABEL: "bucket 2"
- COMPOUND: "O=C1NC(=C(Cl)Cl)/C(=N/S(=O)(=O)N2CCC(C3(C(F)(F)F)N=N3)CC2)N1"
  CLASS_LABEL: "bucket 3"
- COMPOUND: "COc1cc2c(c(OC)c1OC)-c1ccc(N)c(=O)cc1[C@@H](NC(C)=O)CC2"
  CLASS_LABEL: "bucket 1"

# input // return the class label for `COC(=O)[C@]12CC[C@@H](C)[C@H](C)[C@@H]1C1=CC[C@@H]3[C@@]4(C)C(C=O)=C[C@@](C)(COC(=O)c5ccco5)[C@@H]4[C@H](O)C[C@@]3(C)[C@]1(C)CC2`
# output bucket 1

# input // return the class label for `COc1cc(-c2nn(-c3cccc(NC(=O)c4cccc(C(F)(F)F)c4)c3)cc2-c2ccncc2)ccc1Cl`
# output bucket 1

# input // return the class label for `COc1ccc(S(=O)(=O)n2cc(C(=O)C(=O)Nc3ccncc3)c3ccccc32)cc1F`
# output bucket 2

# input // return the class label for `OCCCCCCNc1ncnc2cc(Cl)ccc12`
# output bucket 3

# input // return the class label for `CN(C)CCOC(=O)Nc1ccccc1Cl`
# output bucket 3

# input // return the class label for `CCCC(=O)Oc1ccc(/C(=C(\C)c2ccccc2)c2ccc(OCCN(CC)CC)cc2)cc1`
# output bucket 3

# input // return the class label for `C=C1c2nc3ccccc3n2C=C(c2ccc(Cl)cc2)N1Cc1ccccc1`
# output bucket 2

# input // return the class label for `O=C1Nc2ccc3c(c2/C1=C\c1cc2c(cc1Br)OCO2)OCO3`
# output bucket 1

# input // return the class label for `Cn1cnc2c(N3CCN(C(=O)OCc4ccc5c(Cl)cc(Cl)c(O)c5n4)CC3)nc(Cl)nc21`
# output bucket 2

# input // return the class label for CCCCCCCCCCCCCCCCCCNC(=O)[C@H]1CSC(c2cccs2)N1 (some centres undefined)
# output bucket 2

# input // return the class label for `O=C(O)c1cn(C2CC2)c2cc(N3CCN(C(=O)/C=C/c4ccc(Cl)cc4)CC3)c(F)cc2c1=O`
# output bucket 1

====

tested on: OVCAR-3 ovarian; test: NCI-60 one-dose screen, 48 h (100 = growth as untreated, 0 = no growth, -100 = all killed); settings: 10 µM unless noted
Compounds without any hit were thinned out: in the full panel of roughly 83,000, 20% have a hit.
READOUT_TYPE: growth (%)
Respond with the bare value in %.

- COMPOUND: "COc1cc(NC(N)=NCCC(C)(C)Oc2ccc(C(F)(F)F)cc2)ncc1C#N"
  READOUT_TYPE: "growth"
  VALUE: -75
- COMPOUND: "Cn1c(=O)cc(NC(=O)CN2CCN(c3cc4c(cc3F)c(=O)c(C(=O)O)cn4C3CC3)CC2)[nH]c1=O"
  READOUT_TYPE: "growth"
  VALUE: 99.5
- COMPOUND: "CCN(CC)CCOc1ccc(Cl)c(C)c1"
  READOUT_TYPE: "growth"
  VALUE: 95.1

# input Form: Entry = COc1ccc(C2C=C(c3ccc(OC)c(OC)c3)N=C3SC=C(C)N32)c(Br)c1 (stereo not given) | System = OVCAR-3 ovarian | growth = ____
# output 112

# input Form: Entry = `Fc1ccc(Nc2nc(NCCNc3ccnc4cc(Cl)ccc34)nc(N3CCOCC3)n2)cc1` | System = OVCAR-3 ovarian | growth = ____
# output 85.1

====

tested on: SF-539 CNS; assay: NCI-60 one-dose screen, 48 h (100 = growth as untreated, 0 = no growth, -100 = all killed); settings: 10 µM unless noted
Compounds without any hit were thinned out: in the full panel of roughly 83,000, 20% have a hit.
Note to self: growth under 70% means Satisfied, ties and anything higher get Not satisfied.

Recorded results for 4 molecules are shown here.
- SMILES_STRING: "CCOC(=O)c1cn2c3c(cccc3c1=O)C(=O)/C(=C/c1cccc(Cl)c1Cl)C2"
  CLASS_LABEL: "Not satisfied"
- SMILES_STRING: "Cc1cc(N/N=C/c2nc(-c3ccc(Br)cc3)oc2C)c2cc(Br)ccc2n1"
  CLASS_LABEL: "Not satisfied"
- SMILES_STRING: "COc1ccc(CN2CCc3c(Sc4ccccc4)nc(N)nc3C2=O)c(OC)c1"
  CLASS_LABEL: "Satisfied"
- SMILES_STRING: "CN(C)c1cccc2c(S(=O)(=O)/N=C(\\N)Nc3nc4ccccc4s3)cccc12"
  CLASS_LABEL: "Satisfied"

# input Dear reviewer, please state whether `O=C1NN(C(=O)c2ccc(Cl)cc2)C(c2ccccc2)=N/C1=C\c1cn(-c2ccccc2)nc1-c1ccccc1` has growth strictly beneath 70%.
# output Not satisfied

# input Dear reviewer, please state whether `CCC1=CCC[C@@]2(C)CCC[C@@]3(C)CCCC(C)(C)[C@]1([O-])[O+]32` has growth strictly beneath 70%.
# output Not satisfied

# input Dear reviewer, please state whether `Nc1cccc(Cl)c1N` has growth strictly beneath 70%.
# output Not satisfied

# input Dear reviewer, please state whether `COc1cc(/C=C/C(=O)c2cccc(-n3cc(-c4cc(OC)c(OC)c(OC)c4)[nH]c3=O)c2)cc(OC)c1OC` has growth strictly beneath 70%.
# output Satisfied

# input Dear reviewer, please state whether `Cc1ccc(S(=O)(=O)/C(=C\c2ccc(Cl)cc2)C(=O)c2ccccc2)cc1` has growth strictly beneath 70%.
# output Not satisfied

# input Dear reviewer, please state whether `COc1ccc(C2=C(c3cc(OC)c(OC)c(OC)c3)C(=O)CC2)cc1` has growth strictly beneath 70%.
# output Satisfied

====

As shown below, each of these compounds has a reported growth value.
system: TK-10 renal; test: NCI-60 one-dose screen, 48 h (100 = growth as untreated, 0 = no growth, -100 = all killed); details: 10 µM unless noted
This is part of a sample that, as a whole, favours compounds with a hit. Of some 83,000 tested, about 20% had one in any assay.
Respond with the bare value in %.

Solved entries:
- COMPOUND: "O=C(Nc1cccc(-n2cc(-c3ccncc3)c(-c3ccc(Cl)c(O)c3)n2)c1)Nc1ccc(Cl)c(Cl)c1"
  growth (%): 7.16
- COMPOUND: "COc1ccc(-c2nc(N3CCCC3=O)sc2Br)cc1OC"
  growth (%): 94.1

# input Form: Entry = `C=C1C(=O)O[C@H]2[C@H]1CC/C(Cn1cc(CNC(=O)/C=C/c3c[nH]c4ccccc34)nn1)=C\CC[C@@]1(C)O[C@@H]21` | System = TK-10 renal | growth = ____
# output 123

# input Form: Entry = COc1ccc(OC)c(C2OC(c3ccc4ccccc4c3O)=NN2C(C)=O)c1 (stereo not drawn) | System = TK-10 renal | growth = ____
# output 80.7

====

tested on: SN12C renal; assay: NCI-60 one-dose screen, 48 h (100 = growth as untreated, 0 = no growth, -100 = all killed); conditions: 10 µM unless noted
About 83,000 compounds went through this panel and 20% of them were active in at least one assay; those are over-represented in the sample as a whole.
READOUT_TYPE: growth (%)
Respond with the bare value in %.

Solved entries:
- COMPOUND: "COc1ccc(S(=O)(=O)NCCCNc2nccc(-n3ccc4cccnc43)n2)cc1"
  QUANTITY_UNIT: "%"
  growth: 90.9
- COMPOUND: "O=S(=O)(NCCNc1nccc(-c2c(-c3cccc(O)c3)nc3sccn23)n1)c1ccc(F)cc1"
  QUANTITY_UNIT: "%"
  growth: 63.9
- COMPOUND: "C=C1CCC2C(C)(CO)C(O)CCC2(C)C1C/C=C1/C(=O)OCC1O/C=C/c1ccccc1 (centres undefined)"
  QUANTITY_UNIT: "%"
  growth: 73.8
- COMPOUND: "FC(F)(F)c1cccc(-c2cn3c(ccc4ccccc43)n2)c1"
  QUANTITY_UNIT: "%"
  growth: 97
- COMPOUND: "OB(O)c1cccc(-c2nc3ccc4[nH]ncc4c3c3c2CCCC3)c1F"
  QUANTITY_UNIT: "%"
  growth: 47.7

# input # query: growth of entry `COc1ccccc1CNCCCN1C(=O)c2ccc3c4c(ccc(c24)C1=O)C(=O)N(CCCNCCCCNCCCN)C3=O`
# output -32.8
